These entries and their values trace back to ChEMBL document CHEMBL1156179.

targetSystem: Adenosine receptors; A1 & A3 (Homo sapiens) (UniProt P30542+P0DMS8)
protocolDescription: Selectivity ratio of Ki for human adenosine A1 receptor to Ki for human adenosine A3

chemicalSmiles	Ratio Ki
Nc1nc2nn(CCc3ccccc3)cc2c2nc(-c3ccc(Cl)cc3)nn12	2.56
Cn1cc2c(nc(NC(=O)Cc3ccccc3)n3nc(-c4ccc(F)cc4)nc23)n1	11400
COc1ccc(-c2nc3c4cn(CCc5ccccc5)nc4nc(N)n3n2)cc1	11.6
Cn1cc2c(nc(N)n3nc(-c4ccco4)nc23)n1	0.33
COc1ccc(-c2nc3c4cn(C)nc4nc(N)n3n2)cc1	583
Cn1cc2c(nc(NC(=O)c3ccccc3)n3nc(-c4ccc(F)cc4)nc23)n1	738
COc1ccc(-c2nc3c4cn(C)nc4nc(N(C(=O)c4ccccc4)C(=O)c4ccccc4)n3n2)cc1	> 1450
Cn1cc2c(nc(NC(=O)c3ccccc3)n3nc(-c4ccccc4)nc23)n1	124
Cn1cc2c(nc(NC(=O)Cc3ccccc3)n3nc(-c4ccc([N+](=O)[O-])cc4)nc23)n1	37200
Cn1cc2c(nc(NC(=O)Cc3ccccc3)n3nc(-c4ccc(Br)cc4)nc23)n1	70700
O=C(Nc1nc2nn(CCc3ccccc3)cc2c2nc(-c3ccccc3)nn12)c1ccccc1	13.1
Cn1cc2c(nc(NC(=O)c3ccccc3)n3nc(-c4ccc([N+](=O)[O-])cc4)nc23)n1	> 532
COc1ccc(-c2nc3c4cn(C)nc4nc(NC(=O)Cc4ccccc4)n3n2)cc1	> 124000
Cn1cc2c(nc(NC(=O)Cc3ccccc3)n3nc(-c4ccco4)nc23)n1	867
Cn1cc2c(nc(N)n3nc(-c4ccccc4)nc23)n1	4.52
Cn1cc2c(nc(NC(=O)c3ccccc3)n3nc(-c4ccc(Br)cc4)nc23)n1	> 5730
Cn1cc2c(nc(NC(=O)Cc3ccccc3)n3nc(-c4ccccc4)nc23)n1	5200
Nc1nc2nn(CCc3ccccc3)cc2c2nc(-c3ccccc3)nn12	0.975
Cn1cc2c(nc(N)n3nc(-c4ccc(F)cc4)nc23)n1	32.2
CCn1ncc2c1nc(N)n1nc(-c3ccc(Cl)cc3)nc21	0.21
Cn1cc2c(nc(N)n3nc(-c4ccc(Br)cc4)nc23)n1	74.9

----------
Overview of reported Ratio Ki across a group of molecules:
targetSystem: Adenosine receptors; A1 & A3 (Homo sapiens) (UniProt P30542+P0DMS8)
protocolDescription: Selectivity ratio of Ki for human adenosine A1 receptor to Ki for human adenosine A3

chemicalSmiles	Ratio Ki
Cn1cc2c(nc(N)n3nc(-c4ccc(Cl)cc4)nc23)n1	67.1
Cn1cc2c(nc(N(C(=O)c3ccccc3)C(=O)c3ccccc3)n3nc(-c4ccc(Cl)cc4)nc23)n1	> 1440
O=C(Nc1nc2nn(CCc3ccccc3)cc2c2nc(-c3ccc(Br)cc3)nn12)c1ccccc1	1.76
CCn1cc2c(nc(N)n3nc(-c4ccc(Cl)cc4)nc23)n1	22.9
Cn1cc2c(nc(NC(=O)c3ccccc3)n3nc(-c4ccc(Cl)cc4)nc23)n1	> 10600
Nc1nc2nn(CCc3ccccc3)cc2c2nc(-c3ccc(F)cc3)nn12	0.773
Nc1nc2nn(CCc3ccccc3)cc2c2nc(-c3ccc(Br)cc3)nn12	2.25
Cn1cc2c(nc(NC(=O)Cc3ccccc3)n3nc(-c4ccc(Cl)cc4)nc23)n1	19600
Cn1cc2c(nc(N)n3nc(-c4ccc([N+](=O)[O-])cc4)nc23)n1	> 458
COc1ccc(-c2nc3c4cn(C)nc4nc(NC(=O)c4ccccc4)n3n2)cc1	> 14300

----------
targetSystem: Adenosine receptor A2a (Homo sapiens)
Sequence (P29274 whole entry): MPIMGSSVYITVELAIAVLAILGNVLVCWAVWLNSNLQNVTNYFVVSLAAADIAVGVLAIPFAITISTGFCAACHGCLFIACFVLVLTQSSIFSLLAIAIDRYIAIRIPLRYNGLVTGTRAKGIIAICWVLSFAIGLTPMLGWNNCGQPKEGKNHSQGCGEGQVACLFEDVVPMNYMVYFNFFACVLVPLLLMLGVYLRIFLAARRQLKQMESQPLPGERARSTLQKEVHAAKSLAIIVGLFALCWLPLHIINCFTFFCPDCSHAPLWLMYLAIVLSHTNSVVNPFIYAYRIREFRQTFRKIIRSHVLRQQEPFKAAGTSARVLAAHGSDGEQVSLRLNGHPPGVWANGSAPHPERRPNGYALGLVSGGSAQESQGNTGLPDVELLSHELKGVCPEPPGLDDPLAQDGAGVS

chemicalSmiles	targetSystem	reportedRelation	Ki (µM)
Cn1cc2c(nc(NC(=O)Cc3ccccc3)n3nc(-c4ccc(F)cc4)nc23)n1	Adenosine receptor A2a (Homo sapiens)	=	2.54
Cn1cc2c(nc(NC(=O)c3ccccc3)n3nc(-c4ccc(Cl)cc4)nc23)n1	Adenosine receptor A2a (Homo sapiens)	>	100
Cn1cc2c(nc(NC(=O)Cc3ccccc3)n3nc(-c4ccc(Cl)cc4)nc23)n1	Adenosine receptor A2a (Homo sapiens)	=	8.32

----------
// Adenosine receptor A2a (Homo sapiens) log10 Ki records
recordedMetric: log10 Ki (log10 of the value in µM)

chemicalSmiles	targetSystem	log10 Ki
COc1ccc(-c2nc3c4cn(C)nc4nc(N)n3n2)cc1	Adenosine receptor A2a (Homo sapiens)	0.08
Cn1cc2c(nc(N)n3nc(-c4ccc(F)cc4)nc23)n1	Adenosine receptor A2a (Homo sapiens)	-0.45
Cn1cc2c(nc(NC(=O)Cc3ccccc3)n3nc(-c4ccccc4)nc23)n1	Adenosine receptor A2a (Homo sapiens)	-0.11
Cn1cc2c(nc(N)n3nc(-c4ccc(Br)cc4)nc23)n1	Adenosine receptor A2a (Homo sapiens)	0.18
Nc1nc2nn(CCc3ccccc3)cc2c2nc(-c3ccc(F)cc3)nn12	Adenosine receptor A2a (Homo sapiens)	-0.90
Cn1cc2c(nc(N)n3nc(-c4ccc(Cl)cc4)nc23)n1	Adenosine receptor A2a (Homo sapiens)	0.31

----------
Species: Homo sapiens
protocolDescription: Selectivity ratio of Ki for human adenosine A2A receptor to Ki for human adenosine A3
# Ratio Ki binned as bucket 1 = under 10, bucket 2 = from 10 up to 60, bucket 3 = 60 and over

chemicalSmiles	classAssignment
Cn1cc2c(nc(NC(=O)Cc3ccccc3)n3nc(-c4ccco4)nc23)n1	bucket 3
Cn1cc2c(nc(N)n3nc(-c4ccco4)nc23)n1	bucket 1
Cn1cc2c(nc(N)n3nc(-c4ccc(Cl)cc4)nc23)n1	bucket 2
Nc1nc2nn(CCc3ccccc3)cc2c2nc(-c3ccccc3)nn12	bucket 1
Cn1cc2c(nc(NC(=O)Cc3ccccc3)n3nc(-c4ccc(F)cc4)nc23)n1	bucket 3
O=C(Nc1nc2nn(CCc3ccccc3)cc2c2nc(-c3ccc(Br)cc3)nn12)c1ccccc1	bucket 3
Cn1cc2c(nc(N(C(=O)c3ccccc3)C(=O)c3ccccc3)n3nc(-c4ccc(Cl)cc4)nc23)n1	bucket 3
Nc1nc2nn(CCc3ccccc3)cc2c2nc(-c3ccc(Cl)cc3)nn12	bucket 2
Cn1cc2c(nc(NC(=O)Cc3ccccc3)n3nc(-c4ccc([N+](=O)[O-])cc4)nc23)n1	bucket 3
O=C(Nc1nc2nn(CCc3ccccc3)cc2c2nc(-c3ccccc3)nn12)c1ccccc1	bucket 2
COc1ccc(-c2nc3c4cn(C)nc4nc(NC(=O)c4ccccc4)n3n2)cc1	bucket 3
Cn1cc2c(nc(NC(=O)c3ccccc3)n3nc(-c4ccccc4)nc23)n1	bucket 3
Cn1cc2c(nc(NC(=O)c3ccccc3)n3nc(-c4ccc([N+](=O)[O-])cc4)nc23)n1	bucket 3
Nc1nc2nn(CCc3ccccc3)cc2c2nc(-c3ccc(F)cc3)nn12	bucket 1
Cn1cc2c(nc(N)n3nc(-c4ccc(Br)cc4)nc23)n1	bucket 2
COc1ccc(-c2nc3c4cn(C)nc4nc(N(C(=O)c4ccccc4)C(=O)c4ccccc4)n3n2)cc1	bucket 3
Cn1cc2c(nc(NC(=O)c3ccccc3)n3nc(-c4ccc(Br)cc4)nc23)n1	bucket 3
Cn1cc2c(nc(NC(=O)Cc3ccccc3)n3nc(-c4ccc(Cl)cc4)nc23)n1	bucket 3
Cn1cc2c(nc(NC(=O)c3ccccc3)n3nc(-c4ccc(F)cc4)nc23)n1	bucket 3
Nc1nc2nn(CCc3ccccc3)cc2c2nc(-c3ccc(Br)cc3)nn12	bucket 3
Cn1cc2c(nc(NC(=O)Cc3ccccc3)n3nc(-c4ccc(Br)cc4)nc23)n1	bucket 3
CCn1cc2c(nc(N)n3nc(-c4ccc(Cl)cc4)nc23)n1	bucket 2
Cn1cc2c(nc(NC(=O)c3ccccc3)n3nc(-c4ccc(Cl)cc4)nc23)n1	bucket 3
Cn1cc2c(nc(NC(=O)Cc3ccccc3)n3nc(-c4ccccc4)nc23)n1	bucket 3
CCn1ncc2c1nc(N)n1nc(-c3ccc(Cl)cc3)nc21	bucket 1
Cn1cc2c(nc(N)n3nc(-c4ccccc4)nc23)n1	bucket 1
Cn1cc2c(nc(N)n3nc(-c4ccc(F)cc4)nc23)n1	bucket 2
COc1ccc(-c2nc3c4cn(C)nc4nc(N)n3n2)cc1	bucket 3
COc1ccc(-c2nc3c4cn(CCc5ccccc5)nc4nc(N)n3n2)cc1	bucket 2
COc1ccc(-c2nc3c4cn(C)nc4nc(NC(=O)Cc4ccccc4)n3n2)cc1	bucket 3

----------
Overview of reported pKi across a group of molecules:
targetSystem: UniProt:P30542
Sequence (P30542 whole entry): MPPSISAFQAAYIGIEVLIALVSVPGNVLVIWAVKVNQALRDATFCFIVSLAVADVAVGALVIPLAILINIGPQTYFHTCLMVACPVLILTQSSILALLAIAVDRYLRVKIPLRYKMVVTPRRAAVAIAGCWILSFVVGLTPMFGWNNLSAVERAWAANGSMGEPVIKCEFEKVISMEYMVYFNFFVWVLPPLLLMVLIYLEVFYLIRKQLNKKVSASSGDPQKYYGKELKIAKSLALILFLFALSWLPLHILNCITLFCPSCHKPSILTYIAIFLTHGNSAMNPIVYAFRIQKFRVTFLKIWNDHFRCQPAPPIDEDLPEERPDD
protocolDescription: Displacement of [3H]CCPA from human cloned adenosine A1 receptor expressed in CHO cells
Type: cell-based
pKi: −log10 of the molar value.
recordedMetric: pKi

chemicalSmiles	reportedRelation	reportedMeasurement
COc1ccc(-c2nc3c4cn(C)nc4nc(N(C(=O)c4ccccc4)C(=O)c4ccccc4)n3n2)cc1	<	5.00
O=C(Nc1nc2nn(CCc3ccccc3)cc2c2nc(-c3ccccc3)nn12)c1ccccc1	=	6.50
COc1ccc(-c2nc3c4cn(CCc5ccccc5)nc4nc(N)n3n2)cc1	=	6.54
O=C(Nc1nc2nn(CCc3ccccc3)cc2c2nc(-c3ccc(Br)cc3)nn12)c1ccccc1	=	6.57
Nc1nc2nn(CCc3ccccc3)cc2c2nc(-c3ccc(Br)cc3)nn12	=	6.30
COc1ccc(-c2nc3c4cn(C)nc4nc(NC(=O)c4ccccc4)n3n2)cc1	<	4.52
